The measured values listed here are drawn from patent US10548899B2.

Task for the reader: assign each of the following compounds its reported pEC50.
target: human M1 receptor (hCHRM1) (Homo sapiens); assay: Measurement of M1 receptor positive allosteric modulator (M1PAM) activity (calcium fluorescence, Fluo-4, FDSS); settings: inflection point of concentration-dependent curve; CHO-K1 cells stably expressing hCHRM1; in presence of acetylcholine at EC20 concentration (final 0.8 nM); read-out: IP value
Structures can show the parent of a compound that is named as a salt.
Just the number, please; pEC50 means minus log10 of the concentration in mol/L.

What value of pEC50 has been recorded for this entry: Cc1c(Cc2ccc(-n3cccn3)cc2)cc2c(=O)n([C@H]3COCC[C@@H]3O)nnc2c1C [Example 41]
7.54

Param item: Cc1c(Cc2ccc(-c3cn(C)nn3)cc2)cc2c(=O)n([C@@H]3CCC[C@H]3O)cnc2c1C (single isomer, unassigned)
7.89

Param item: Cc1c(Cc2ccc(-c3cn(C)nn3)cc2)cc2c(=O)n([C@H]3CCC[C@@H]3O)cnc2c1C (relative stereo) [Example 11]
7.82

Param item: Cc1cc(-c2ccc(Cc3cc4c(=O)n([C@H]5CCC[C@@H]5O)cnc4c(C)c3C)cn2)ccn1 (relative stereo)
7.41

Param item: Cc1c(Cc2ccc(-n3cccn3)cc2)cc2c(=O)n([C@H]3COCC[C@@H]3O)nnc2c1C [Example 43]
7.85

Param item: Cc1c(Cc2ccc(-c3cn(C)nn3)cc2)cc2c(=O)n([C@H]3CCC[C@@H]3O)cnc2c1C (single isomer, unassigned) [Example 22]
7.10

Param item: Cc1c(Cc2ccc(-c3cnn(C)c3)nc2)cc2c(=O)n(CC3CCCO3)cnc2c1Cl (stereo not shown) [Example 25, hydrochloride]
7.21

* * *

target: human M1 receptor (hCHRM1) (Homo sapiens, UniProt P11229); experiment: Measurement of M1 receptor positive allosteric modulator (M1PAM) activity (calcium fluorescence, Fluo-4, FDSS); conditions: inflection point of concentration-dependent curve; CHO-K1 cells stably expressing hCHRM1; in presence of acetylcholine at EC20 concentration (final 0.8 nM); read-out: IP value
metric_name: pEC50
Just the number, please; pEC50 means minus log10 of the concentration in mol/L.

What value of pEC50 has been recorded for this entry: Cc1c(Cc2ccc(-c3cn(C)nn3)nc2)cc2c(=O)n([C@H]3CCC[C@@H]3O)cnc2c1C (relative stereo)
7.96

Param item: Cc1c(Cc2ccc(-c3cnn(C)c3)nc2)cc2c(=O)n([C@H]3CCC[C@@H]3O)cnc2c1C (relative stereo) [Example 15]
7.96

Param item: Cc1cc2ncn([C@H]3CCC[C@@H]3O)c(=O)c2cc1Cc1ccc(-c2cn(C)nn2)cc1 (relative stereo)
7.29

Param item: Cc1c(Cc2ccc(-c3cnn(C)c3)nc2)cc2c(=O)n(CC3CCCO3)nnc2c1C (stereo not shown)
7.07

* * *

Task for the reader: assign each of the following molecules its reported pEC50.
Biological target: human M1 receptor (hCHRM1) (Homo sapiens)
Sequence (P11229 1-460): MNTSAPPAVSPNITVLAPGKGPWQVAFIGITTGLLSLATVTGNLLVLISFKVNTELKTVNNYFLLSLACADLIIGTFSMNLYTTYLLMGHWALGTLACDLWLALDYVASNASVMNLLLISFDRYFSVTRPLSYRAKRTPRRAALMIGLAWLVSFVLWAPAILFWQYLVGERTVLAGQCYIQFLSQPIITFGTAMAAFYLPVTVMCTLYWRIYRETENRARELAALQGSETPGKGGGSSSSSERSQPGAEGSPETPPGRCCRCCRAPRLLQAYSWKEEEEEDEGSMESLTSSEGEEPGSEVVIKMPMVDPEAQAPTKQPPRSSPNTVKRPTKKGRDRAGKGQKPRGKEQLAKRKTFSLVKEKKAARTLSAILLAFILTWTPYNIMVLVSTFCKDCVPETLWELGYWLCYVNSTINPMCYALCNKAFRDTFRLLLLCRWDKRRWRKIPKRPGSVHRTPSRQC
Assay: Measurement of M1 receptor positive allosteric modulator (M1PAM) activity (calcium fluorescence, Fluo-4, FDSS)
Settings: inflection point of concentration-dependent curve; CHO-K1 cells stably expressing hCHRM1; in presence of acetylcholine at EC20 concentration (final 0.8 nM); read-out: IP value
Just the number, please; pEC50 means minus log10 of the concentration in mol/L.

pEC50 of Cc1c(Cc2ccc(-c3cn(C)nn3)cc2)cc2c(=O)n([C@H]3CCC[C@@H]3O)nnc2c1C (relative stereo) [Example 40] on human M1 receptor (hCHRM1) (Homo sapiens)?
7.15

Param item: Cc1c(Cc2ccc(-n3cccn3)nc2)cc2c(=O)n([C@H]3COCC[C@@H]3O)nnc2c1C [Example 44]
7.49

Param item: Cc1ccc(Cc2cc3c(=O)n([C@H]4CCCC[C@@H]4O)cnc3c(C)c2C)cn1 (relative stereo) [Example 35]
7.39

Param item: Cc1c(Cc2ccc(-n3cccn3)cc2)cc2c(=O)n([C@H]3COCC[C@@H]3O)nnc2c1F [Example 49]
7.74

Param item: Cc1c(Cc2ccc(-c3ccn(C)n3)nc2)cc2c(=O)n([C@H]3COCC[C@@H]3O)nnc2c1C [Example 58]
7.85

Param item: Cc1c(Cc2ccc(-n3cccn3)cc2)cc2c(=O)n([C@H]3CCOC[C@@H]3O)nnc2c1C [Example 56]
7.82

Param item: Cc1c(Cc2ccc(-c3ccn(C)n3)nc2)cc2c(=O)n([C@H]3CCCC[C@@H]3O)cnc2c1C [Example 57]
8.14
